B1: Colicin-E1, P02978 (parent)
chain: METAVAYYKDGVPYDDKGQVIITLLNGTPDGSGSGGGGGKGGSKSESSAAIHATAKWSTAQLKKTQAEQAARAKAAAEAQAKAKANRDALTQRLKDIVNEALRHNASRTPSATELAHANNAAMQAEDERLRLAKAEEKARKEAEAAEKAFQEAEQRRKEIEREKAETERQLKLAEAEEKRLAALSEEAKAVEIAQKKLSAAQSEVVKMDGEIKTLNSRLSSSIHARDAEMKTLAGKRNELAQASAKYKELDELVKKLSPRANDPLQNRPFFEATRRRVGAGKIREEKQKQVTASETRINRINADITQIQKAISQVSNNRNAGIARVHEAEENLKKAQNNLLNSQIKDAVDATVSFYQTLTEKYGEKYSKMAQELADKSKGKKIGNVNEALAAFEKYKDVLNKKFSKADRDAIFNALASVKYDDWAKHLDQFAKYLKITGHVSFGYDVVSDILKIKDTGDWKPLFLTLEKKAADAGVSYVVALLFSLLAGTTLGIWGIAIVTGILCSYIDKNKLNTINEVLGI

# Variants of: B1
# Run Parameters: Escherichia coli; pH 6; 22 °C; Urea; Fluorescence; dimethylglutaric acid 10 mM; NaCl 100 mM; reversible: yes; structure 2I88; whole UniProt chain shown
Measure: denaturant midpoint (higher = more stable) (M)

[[record]]
variant_description = "Y507W"
numeric_result = 5.7

[[record]]
variant_description = "F355T"
numeric_result = 4.9

[[record]]
variant_description = "W424F W495F"
numeric_result = 6.1

[[record]]
variant_description = "F413W"
numeric_result = 5.7

[[record]]
variant_description = "W424F W460F"
numeric_result = 5.3

[[record]]
variant_description = "F484W"
numeric_result = 4.6

[[record]]
variant_description = "F404W"
numeric_result = 4.8

[[record]]
variant_description = "F431W"
numeric_result = 5.8

[[record]]
variant_description = "W460F W495F"
numeric_result = 6.1

[[record]]
variant_description = "F443W"
numeric_result = 5.5

[[record]]
variant_description = "Y367W"
numeric_result = 4.9

